These measurements were taken from paper PMC10425210.

Test: Plasma pharmacokinetics after a single subcutaneous administration of LEN
Assay type: in vivo, rhesus macaques
Conditions: male, Indian-origin (outbred), rhesus monkey, plasma, subcutaneous, 20 mg/kg, Plasma LEN (Mean), 20 mg/kg sc, week 8 post dose
experimental_endpoint: concentration at 8 week (µM)
Answer in µM, number only, no unit symbol.

Report concentration at 8 week for CC(C)(C#Cc1ccc(-c2ccc(Cl)c3c(NS(C)(=O)=O)nn(CC(F)(F)F)c23)c([C@H](Cc2cc(F)cc(F)c2)NC(=O)Cn2nc(C(F)(F)F)c3c2C(F)(F)[C@@H]2C[C@H]32)n1)S(C)(=O)=O
0.0261

* * *

Assay: Plasma pharmacokinetics after a single subcutaneous administration of LEN
Format: in vivo, rhesus macaques
Settings: male, Indian-origin (outbred), rhesus monkey, plasma, subcutaneous, 10 mg/kg, Plasma LEN (Mean), 10 mg/kg sc, week 9 post dose
experimental_endpoint: concentration at 9 week
Number plus unit, in that order.

Report concentration at 9 week for CC(C)(C#Cc1ccc(-c2ccc(Cl)c3c(NS(C)(=O)=O)nn(CC(F)(F)F)c23)c([C@H](Cc2cc(F)cc(F)c2)NC(=O)Cn2nc(C(F)(F)F)c3c2C(F)(F)[C@@H]2C[C@H]32)n1)S(C)(=O)=O
10.1 nM
